This collection of values is drawn from the supplement of paper PMC10567573.

Reported protein stability index values for a set of variants
B1: HDAC6 (parent)
chain: KMKTRELHRESSNFDSIYICPSTF

Variants of: B1
assay_text: protein stability index of a GFP-peptide fusion (GPS, HEK-293T) (PSI 1-6); higher = more stable;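 further: lentivirally expressed fusions sorted by FACS into six bins by GFP to DsRed ratio, PSI derived from sequencing read proportions per bin multiplied by bin number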
condition_description: c terminus: a fixed tail appended
Simply state the number, no unit and no words.

Recorded protein stability index, per entry:
INSERT INTO results (variant_annotation, assay_readout, observed_result) VALUES
  ('S22K', 'protein stability index', 3.33),
  ('E6I', 'protein stability index', 1.83),
  ('K3F', 'protein stability index', 2.1),
  ('T23S', 'protein stability index', 2.59),
  ('I19W', 'protein stability index', 3.01);

[Q] // query protein stability index value for entry "S22F"
[A] 2.19

[Q] // query protein stability index value for entry "S12G"
[A] 3.05

[Q] // query protein stability index value for entry "T23A"
[A] 2.16
